- System: HLA B*5401 (Homo sapiens, UniProt P01889, A329T/C349S/D138N/D201E/E176V/E187T/E204Q/E69G/I76V/K202T/L119W/R155S/R180L/S121T/S35A/S48A/V127L/V306I/V36M/Y140L)
- Assay type: binding
MET means recorded Normalized average relative binding affinity (ARB), HLA B*5401 is 0.03 or above; NOT MET means it is below 0.03.

>>> print(df.to_string())
           input_sequence  group_label
 0  XXMXXXXXX [3064.0051]          MET
 1  PXXXXXXXX [3064.0013]      NOT MET
 2  XEXXXXXXX [3064.0024]      NOT MET
 3  XXTXXXXXX [3064.0057]      NOT MET
 4  XMXXXXXXX [3064.0031]      NOT MET
 5  XXNXXXXXX [3064.0052]          MET
 6  XCXXXXXXX [3064.0022]      NOT MET
 7  CXXXXXXXX [3064.0002]      NOT MET
 8  TXXXXXXXX [3064.0017]      NOT MET
 9  XXDXXXXXX [3064.0043]      NOT MET
10  SXXXXXXXX [3064.0016]          MET
11  RXXXXXXXX [3064.0015]      NOT MET
12  XTXXXXXXX [3064.0037]      NOT MET
13  XQXXXXXXX [3064.0034]      NOT MET
14  XXHXXXXXX [3064.0047]      NOT MET
15  XXGXXXXXX [3064.0046]      NOT MET
